Recorded Fold of changes in relative LHPP mRNA expression level (log2) by entry
Tested on: LHPP gene
Assay: High-throughput screening of saRNAs targeting LHPP promoter: LHPP mRNA by one-step RT-qPCR in Huh7 cells
Assay type: cell-based, human
Settings: 10 nM saRNA, 72 hours, relative to control (Mock)
d = 2'-deoxy (DNA); r = 2'-OH (RNA)
metric name: Fold of changes in relative LHPP mRNA expression level (log2)

[
  {
    "substance": "RAG7-889: saRNA duplex; sense UGGACCAGAAGUAAAGUGUTT (SEQ ID NO: 115), antisense ACACUUUACUUCUGGUCCATT (SEQ ID NO: 279) (sugars from the 5' end r19 d2, backbone not given here)",
    "measured": 0.25
  },
  {
    "substance": "RAG7-833: saRNA duplex; sense GCCAUUGAGGAAACUCCUCTT (SEQ ID NO: 138), antisense GAGGAGUUUCCUCAAUGGCTT (SEQ ID NO: 302) (sugars from the 5' end r19 d2, backbone not given here)",
    "measured": 0.20
  },
  {
    "substance": "RAG7-160: saRNA duplex; sense CUUAGGGACUUGUUUUCUGTT (SEQ ID NO: 153), antisense CAGAAAACAAGUCCCUAAGTT (SEQ ID NO: 317) (sugars from the 5' end r19 d2, backbone not given here)",
    "measured": 0.15
  },
  {
    "substance": "RAG7-182: saRNA duplex; sense UCUCAAUUUGCCUUUGACCTT (SEQ ID NO: 85), antisense GGUCAAAGGCAAAUUGAGATT (SEQ ID NO: 249) (sugars from the 5' end r19 d2, backbone not given here)",
    "measured": 0.33
  }
]

----------
Tested on: LHPP gene
Test: High-throughput screening of saRNAs targeting LHPP promoter: LHPP mRNA by one-step RT-qPCR in Huh7 cells
Format: cell-based, human
Conditions: 10 nM saRNA, 72 hours, relative to control (Mock)
d = 2'-deoxy (DNA); r = 2'-OH (RNA)
Recorded Fold of changes in relative LHPP mRNA expression level by entry
metric name: Fold of changes in relative LHPP mRNA expression level

[
  {
    "substance": "RAG7-125: saRNA duplex; sense UCCGCUGAUCUCCUGGGAATT (SEQ ID NO: 55), antisense UUCCCAGGAGAUCAGCGGATT (SEQ ID NO: 219) (sugars from the 5' end r19 d2, backbone not given here)",
    "measured": "1.36 fold"
  },
  {
    "substance": "RAG7-182: saRNA duplex; sense UCUCAAUUUGCCUUUGACCTT (SEQ ID NO: 85), antisense GGUCAAAGGCAAAUUGAGATT (SEQ ID NO: 249) (sugars from the 5' end r19 d2, backbone not given here)",
    "measured": "1.26 fold"
  },
  {
    "substance": "RAG7-832: saRNA duplex; sense CCAUUGAGGAAACUCCUCCTT (SEQ ID NO: 139), antisense GGAGGAGUUUCCUCAAUGGTT (SEQ ID NO: 303) (sugars from the 5' end r19 d2, backbone not given here)",
    "measured": "1.14 fold"
  },
  {
    "substance": "RAG7-709: saRNA duplex; sense UUUUCUUCUCAGCCCAGGUTT (SEQ ID NO: 126), antisense ACCUGGGCUGAGAAGAAAATT (SEQ ID NO: 290) (sugars from the 5' end r19 d2, backbone not given here)",
    "measured": "1.17 fold"
  }
]
